Cited source: patent US6143774A

- Test system: endothelin (ET), isolated thoracic aorta of a rat
- assay overview: Antagonistic activity of endothelin on the isolated aorta of a rat
- Parameters: species or system Wistar male rats
- experimental conditions: antagonist 0.1 μM; ET 30 nM
Recorded % inhibition of contraction by entry
observation type: % inhibition of contraction (%)

>>> df
                                   molecule                             target_system  value
0  CCCc1nc(SCCCCC(=O)O)c(C(=O)O)n1Cc1cc2c(cc1Cl)OCO2  endothelin (ET), isolated thoracic aorta of a rat     97
1  CCCc1nc(SC2CCC(CC(=O)O)CC2)c(C(=O)O)n1Cc1cc2c(cc1Cl)OCO2 (stereo not shown)  endothelin (ET), isolated thoracic aorta of a rat     61
2  CCCCc1nc(SCCCCCC(=O)O)c(C(=O)O)n1Cc1cc2c(cc1Cl)OCO2  endothelin (ET), isolated thoracic aorta of a rat     65
3  CCCc1nc(SCCCCCC(=O)O)c(C(=O)O)n1Cc1cc2c(cc1Cl)OCO2  endothelin (ET), isolated thoracic aorta of a rat     99

###

- target system: Endothelin A receptor (Rattus norvegicus, UniProt P26684)
- Construct: A membrane preparation is prepared from the heart (ventricles) of a rat; from tissue; host or cells: rat heart ventricles (membrane preparation)
- Sequence (P26684 21-426): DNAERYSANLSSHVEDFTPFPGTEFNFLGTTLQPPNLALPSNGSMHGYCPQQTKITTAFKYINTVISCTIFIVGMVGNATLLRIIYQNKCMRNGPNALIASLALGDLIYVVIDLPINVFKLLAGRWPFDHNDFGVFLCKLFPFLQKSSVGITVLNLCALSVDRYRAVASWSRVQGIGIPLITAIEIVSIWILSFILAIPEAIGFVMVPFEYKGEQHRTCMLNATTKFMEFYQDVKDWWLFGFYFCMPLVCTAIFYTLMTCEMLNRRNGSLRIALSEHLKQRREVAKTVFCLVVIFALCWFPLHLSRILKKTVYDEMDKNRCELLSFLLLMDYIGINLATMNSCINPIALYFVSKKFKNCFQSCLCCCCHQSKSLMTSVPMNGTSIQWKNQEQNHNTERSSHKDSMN
- assay overview: Study of the affinity for the endothelin A receptor (125I endothelin displacement, rat heart ventricle membranes)
- Assay type: binding
- experimental conditions: rat heart (ventricles) membranes, 25° C., 60 minutes
observation type: IC50 (nM)

>>> print(df.to_string())
                                   compound  value
0  CCCCc1nc(SCCCCCC(=O)O)c(C(=O)O)n1Cc1cc2c(cc1Cl)OCO2    1.1
1  CCCc1nc(SCCCCC(=O)O)c(C(=O)O)n1Cc1cc2c(cc1Cl)OCO2    1.9
2  CCCc1nc(SCCCCCC(=O)O)c(C(=O)O)n1Cc1cc2c(cc1Cl)OCO2    1.2
3  CCCc1nc(SC2CCC(=CC(=O)O)CC2)c(C(=O)O)n1Cc1cc2c(cc1Cl)OCO2 (centres unmarked)    1.2
4  CCCc1nc(SC2CCC(CC(=O)O)CC2)c(C(=O)O)n1Cc1cc2c(cc1Cl)OCO2 (centres unmarked)    1.1

###

Recorded % inhibition of contraction by entry
- Test system: endothelin (ET), isolated thoracic aorta of a rat
- assay overview: Antagonistic activity of endothelin on the isolated aorta of a rat
- Design: species or system Wistar male rats
- experimental conditions: antagonist 0.1 μM; ET 10 Nm
- Protocol: The thoracic aorta is removed from Wistar male rats (approximately 350 g) (IFFA CREDO France) anaesthetized with pentobarbital (60 mg/kg IP) then exsanguinated. The aorta is rapidly put into a physiological solution at ambient temperature. […] The inhibition induced by the product is calculated as a % of the reduction relative to the reactivity of the control curves over 2 points: concentration of 10 and 30 nM of endothelin.
observation type: % inhibition of contraction

In [3]: df
Out[3]:
                                   compound             observation_type  value
0  CCCc1nc(SCCCCC(=O)O)c(C(=O)O)n1Cc1cc2c(cc1Cl)OCO2 [Example 8]  % inhibition of contraction    97%
1  CCCc1nc(SC2CCC(CC(=O)O)CC2)c(C(=O)O)n1Cc1cc2c(cc1Cl)OCO2 (stereo not shown) [Example 2]  % inhibition of contraction    71%
2  CCCCc1nc(SCCCCCC(=O)O)c(C(=O)O)n1Cc1cc2c(cc1Cl)OCO2 [Example 12]  % inhibition of contraction    88%
3  CCCc1nc(SCCCCCC(=O)O)c(C(=O)O)n1Cc1cc2c(cc1Cl)OCO2 [Example 6]  % inhibition of contraction    96%

###

- Test system: endothelin (ET1)
- assay overview: Protection against sudden death induced by IV injection of endothelin (ET1) in a female mouse
- Type: in vivo
- experimental conditions: 10 min, IV, 10 minutes before ET1 10 nmole/kg IV
Consider the cut-off 3 mg/kg. If the recorded ED50 is strictly smaller, the label is T; if not, the label is F.

>>> df
                                   compound  assigned_category
0  O=C(O)CCCCCSc1nc(C2OCCO2)n(Cc2cc3c(cc2Cl)OCO3)c1C(=O)O                  F
1  CCCc1nc(SCCCCC(=O)O)c(C(=O)O)n1Cc1cc2c(cc1Cl)OCO2                  F
2  CCCc1nc(SC2CCC(=CC(=O)O)CC2)c(C(=O)O)n1Cc1cc2c(cc1Cl)OCO2 (centres unmarked)                  F
3  CCCc1nc(SC2CCC(CC(=O)O)CC2)c(C(=O)O)n1Cc1cc2c(cc1Cl)OCO2 (centres unmarked)                  T
4  CCCc1nc(SCCCCCC(=O)O)c(C(=O)O)n1Cc1cc2c(cc1Cl)OCO2                  F

###

- target system: Endothelin B receptor (Rattus norvegicus, UniProt P21451)
- Sequence (P21451 27-442): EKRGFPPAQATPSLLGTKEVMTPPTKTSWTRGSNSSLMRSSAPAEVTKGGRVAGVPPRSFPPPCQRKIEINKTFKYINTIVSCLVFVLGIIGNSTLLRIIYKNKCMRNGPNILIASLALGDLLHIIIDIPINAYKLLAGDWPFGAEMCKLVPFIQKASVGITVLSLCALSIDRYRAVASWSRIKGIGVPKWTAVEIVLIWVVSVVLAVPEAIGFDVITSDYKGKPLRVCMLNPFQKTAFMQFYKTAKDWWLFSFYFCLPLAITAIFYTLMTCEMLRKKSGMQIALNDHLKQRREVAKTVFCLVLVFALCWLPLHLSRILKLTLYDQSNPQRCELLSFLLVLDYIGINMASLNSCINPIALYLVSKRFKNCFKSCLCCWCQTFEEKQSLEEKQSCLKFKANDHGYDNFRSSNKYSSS
observation type: IC50 (nM)

>>> df
                                   compound  unit_abbrev  value
0  CCCc1nc(SCCCCCC(=O)O)c(C(=O)O)n1Cc1cc2c(cc1Cl)OCO2           nM    293
1  CCCc1nc(SC2CCC(=CC(=O)O)CC2)c(C(=O)O)n1Cc1cc2c(cc1Cl)OCO2 (stereo not shown)           nM    210
2  CCCc1nc(SC2CCC(CC(=O)O)CC2)c(C(=O)O)n1Cc1cc2c(cc1Cl)OCO2 (stereo not shown)           nM    194
3  CCCc1nc(SCCCCC(=O)O)c(C(=O)O)n1Cc1cc2c(cc1Cl)OCO2           nM    600
